Test system: TO-N3 (biotin conjugate)
assay overview: pull-down binding Z-score (relative to library population); higher = stronger binding
particulars: RNA library: Library-2
assay endpoint: pull-down binding Z-score
Numbers only.

Below, 3 sequences whose answers are already recorded.
chain sequence	pull-down binding Z-score
UGUUACUUUAUAUUGACAUUAAUGGCAAUCUUCAUCCAGAUUCUGCCACUCUUGUUAGUGACA	-0.585
GGCCCCAGGAAGAAGGGCCUGGUGGAGCC [hsa-mir-6743]	0.577
UCUUCCCAGAGUCAGGAAAA [hsa-mir-320c-1]	-0.0041

Okay, here is my list. What is pull-down binding Z-score for each of these?
1. GCUGGGGACUGGAGAA [hsa-mir-4489]
2. CACGCCGCGCCGCCGGGUCCCUCCUCCCCGGAGAGGCUG [hsa-mir-4674]

Resp:
1. 2.4
2. 0.606

* * *

Test system: TO-3-N3-2 (biotin conjugate)
assay overview: pull-down binding Z-score (relative to library population); higher = stronger binding
particulars: RNA library: Library-2
# cutoff -0.2 applies to pull-down binding Z-score; >= gives 1, < gives 0

Examples with answers:
chain sequence	answer label
GAGACUGCCCAAAGACUCUUCAGUAUC [hsa-mir-2681]	1
GCGCUGCCAGAAACUGGCCCAGCGC [bulge-CC]	0
GCGGUUUUUGCUAUUGGUUUUAAUGGC [hsa-mir-548au]	1
CAGUGACAUGCGUUUAAC [hsa-mir-4485]	1
GUGAGAUGUUCAUACAAUCCCUCAC [hsa-mir-216a]	0

# input for lookup
Req: Is pull-down binding Z-score for AGGUUCUGCUGGCUGAGAACCU [hsa-mir-3667] at or above -0.2?
Resp: 1

* * *

Test system: TO-N3 (biotin conjugate)
assay overview: pull-down binding Z-score (relative to library population); higher = stronger binding
particulars: RNA library: Library-2
So basically: pull-down binding Z-score at -0.2 or higher? That is criterion met. Lower than -0.2? That is criterion not met.

chain sequence	answer label
CCUCUGUCCUCUGUCCUCUACCUAUAGAGG [hsa-mir-641]	criterion met

Req: Please check the record CUCCUAUUGAAAAUGAACAGGAG [hsa-mir-873] and state if its pull-down binding Z-score is at or above -0.2.
Resp: criterion not met

Req: Does the reported pull-down binding Z-score for AUACCACUUAUGUACAAAGGACUUCCUUGGAAUGUAGUGCGUAU fall at or above the -0.2 mark?
Resp: criterion not met

Req: Reported pull-down binding Z-score at or above -0.2? GAUUGAAGUUGAAUAGUGC [hsa-mir-3161]
Resp: criterion met

Req: Is reported pull-down binding Z-score greater than or equal to -0.2 here: ACAAGAGGGUGUGGUUGAUUAUGGUGCUAGAUUUUACUUUUACACCAGUAAAACAACUGUAGCGUCACUUAUCAACACACUUAACGAUCUAAAUGAAACUCUUGU
Resp: criterion met

Req: Exam item: decide whether the reported pull-down binding Z-score for CUCUGUAGUUUUCUUAUAGUG [hsa-mir-644a] is at least -0.2.
Resp: criterion not met

Req: Test whether the sequence UCCAUUUUUGGGUGUUUAUUACCACAAAAACAACAAAAGUUGGA [SHAPE_invitro_SARS-CoV-2_Motif_398] records pull-down binding Z-score of -0.2 or higher.
Resp: criterion not met

Req: Answer whether pull-down binding Z-score of AAUAGAAGAAUUAUUCUAUU [SHAPE_invitro_SARS-CoV-2_Motif_349] is greater than or equal to -0.2.
Resp: criterion not met

Req: Form field: pull-down binding Z-score at least -0.2? Entry: GAAACAUCUUUUAC [hsa-mir-4514]
Resp: criterion not met

Req: Check if pull-down binding Z-score >= -0.2 (inclusive). Item: UUUGUAUUGUGGUUCAGUACCAUGCAAA [hsa-mir-6507]
Resp: criterion not met
